protocol details: in vitro
run parameters: human, liver microsomes
readout name: microsomal CLint (µL/min/mg)
# value in µL/min/mg; strip the unit string

Worked cases, microsomal CLint given:
| smiles text | uom | microsomal CLint |
| --- | --- | --- |
| CCc1cc2ccc(CN3CCN(c4ccc(C(=O)NC)cc4)CC3)cc2[nH]c1=O | µL/min/mg | 11 |
| Cc1cnc(N2CCN(Cc3ccc4c(c3)[nH]c(=O)c3ccccc34)CC2)n1C | µL/min/mg | 26 |
| Cc1cnc(N2CCN(Cc3ccc4c(c3)[nH]c(=O)c3cccnc34)CC2)n1C | µL/min/mg | 30 |
| Cc1cnc(N2CCN(Cc3ccc4c5c(c(=O)[nH]c4c3)CCCN5)CC2)n1C | µL/min/mg | 15 |
| CCc1cc2ccc(CN3CCN(c4cnc(C(=O)NC)cn4)CC3)cc2[nH]c1=O | µL/min/mg | 18 |

Data request: Look at this molecule and give its reported microsomal CLint. Cc1cnc(N2CCN(Cc3ccc4c5c(c(=O)[nH]c4c3)COCC5)CC2)n1C
Data returned: 8

Data request: Look at this molecule and give its reported microsomal CLint. Cc1cnc(N2CCN(Cc3ccc4c(c3)[nH]c(=O)c3ncccc34)CC2)n1C
Data returned: 9

Data request: Look at this molecule and give its reported microsomal CLint. O=c1[nH]c(CCCN2CCN(c3ccc(F)cc3F)CC2)nc2c(Cl)cccc12
Data returned: 58

Data request: Look at this molecule and give its reported microsomal CLint. O=c1[nH]c(CCCN2CC=C(c3ccc(F)cc3)CC2)nc2c(Cl)cccc12
Data returned: 35

* * *

protocol details: Half life in rat
Format: ADME
run parameters: in vivo
readout name: half-life (h)
# value in h; strip the unit string

Data request: Look at this compound and give its reported half-life. CCc1cc2ncc(CN3CCN(c4ccc(C(=O)NC)nc4)CC3)cc2[nH]c1=O
Data returned: 4.6

* * *

target desc: Protein mono-ADP-ribosyltransferase PARP16 (Homo sapiens, UniProt Q8N5Y8)
Sequence (Q8N5Y8 whole entry): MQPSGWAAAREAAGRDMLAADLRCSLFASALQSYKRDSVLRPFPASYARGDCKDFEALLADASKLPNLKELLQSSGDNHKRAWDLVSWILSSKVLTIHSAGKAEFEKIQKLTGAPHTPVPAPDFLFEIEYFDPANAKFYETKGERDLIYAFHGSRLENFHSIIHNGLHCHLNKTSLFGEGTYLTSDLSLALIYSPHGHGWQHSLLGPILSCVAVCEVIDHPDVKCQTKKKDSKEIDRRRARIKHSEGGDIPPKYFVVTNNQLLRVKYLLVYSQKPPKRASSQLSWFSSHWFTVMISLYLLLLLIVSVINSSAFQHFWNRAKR
readout name: Kd

Data request: Look at this compound and give its reported Kd. NC(=O)c1cccc2cn(-c3ccc([C@@H]4CCCNC4)cc3)nc12
Data returned: > 10 µM

* * *

protocol details: in vitro
run parameters: human, Caco-2, pH 7.4
Each entry below lists one item and its recorded efflux ratio value.
Lab note: jot down the number only; don't add units.

Worked cases, efflux ratio given:
| smiles text | readout name | observed measurement |
| --- | --- | --- |
| Cc1cnc(N2CCN(Cc3ccc4c5c(c(=O)[nH]c4c3)COCC5)CC2)n1C | efflux ratio | 10 |
| Cc1cnc(N2CCN(Cc3ccc4c5c(c(=O)[nH]c4c3)CCCN5)CC2)n1C | efflux ratio | 3.6 |
| CCc1cc2ccc(CN3CCN(c4cnc(C(=O)NC)nc4)CC3)cc2[nH]c1=O | efflux ratio | 14 |
| CCc1nc2ccc(CN3CCN(c4ccc(C(=O)NC)nc4)CC3)cc2[nH]c1=O | efflux ratio | 1 |
| CCc1cc2ccc(CN3CCN(c4ccc(C(=O)NC)nn4)CC3)cc2[nH]c1=O | efflux ratio | 1.5 |

Data request: Look at this compound and give its reported efflux ratio. CCc1cc2ccc(CN3CCN(c4ccc(C(=O)NC)nc4)CC3)cc2[nH]c1=O
Data returned: 0.7

Data request: Look at this compound and give its reported efflux ratio. Cc1cnc(N2CCN(Cc3ccc4c(c3)[nH]c(=O)c3cccnc34)CC2)n1C
Data returned: 1.3
